System: PIK4CB;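 note: KINOMEscan kinase panel screen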
Construct: gene PI4KB
Conditions: concentration: 1 μM, replicates: in singlicate; n = 1
metric: %Inh
Dear colleague, please send the value followed by its unit.

Examples with their reported %Inh follow.
compound: COC(=O)C(Cc1ccccc1)NC(=O)NC1CCN(c2ccnc(Nc3ccc(F)cc3)n2)C1 (centres unmarked) [GSK1379714]
metric: %Inh
result: 7%
//
compound: CNCc1ccc2nc(NC(=O)c3ccc(C(C)(C)C)cc3)cn2c1
metric: %Inh
result: 19%
//
compound: Cc1ccccc1-c1cc(-c2c[nH]nc2-c2ccccn2)ccn1 [GW680061]
metric: %Inh
result: 0%

Quick batch: %Inh for everything below.
1. CCCCc1nn2ncccc2c1-c1ccnc(NC2CC2)n1 [GW684374]
2. Cc1ccccc1Cn1ccn2c(=O)cc(N3CCOCC3)nc12 [GSK2269905]

Given back:
35%
9%
